All values here come from patent US9701689B2.

Molecular target: human CCR10 (Homo sapiens, UniProt P46092)
Construct: expressed in transfected cells; host or cells: KJMGER8 cells (Namalwa cell-derived line), beta-estradiol-induced; hCCR10G16 cells
Sequence (P46092 whole entry): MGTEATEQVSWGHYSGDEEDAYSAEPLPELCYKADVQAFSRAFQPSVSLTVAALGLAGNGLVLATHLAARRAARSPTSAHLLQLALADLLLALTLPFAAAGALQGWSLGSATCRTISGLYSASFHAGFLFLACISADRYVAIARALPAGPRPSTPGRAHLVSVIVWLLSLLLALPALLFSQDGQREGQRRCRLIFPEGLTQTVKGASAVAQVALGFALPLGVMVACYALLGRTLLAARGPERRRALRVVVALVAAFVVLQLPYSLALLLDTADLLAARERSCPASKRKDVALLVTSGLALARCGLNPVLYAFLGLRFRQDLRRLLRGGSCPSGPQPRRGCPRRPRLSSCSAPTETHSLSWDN
Assay: CCR10 antagonistic effect: calcium assay of human CCR10 (CTACK-induced increase of intracellular calcium in hCCR10G16 cells)
Assay type: cell-based
Settings: at a concentration of not more than 1000 nmol/L; human CCR10-expressing hCCR10G16 cells, 300 nmol/L CTACK added; read-out: inhibition of increase in the calcium ion concentration
Experimental: [Experimental Example 1] CCR10 Antagonistic Effect (1) Preparation of Human CCR10-Inducible Expression Plasmid A CCR10-inducible expression plasmid was prepared according to a known method [Analytical Biochemistry, 2006, vol. 400, page 163]. A DNA encoding human CCR10 was obtained by PCR. […] Using a primer specific to the sequence of plasmid (synthetic DNA having the sequences shown in SEQ ID NOs: 3 and 4), the sequence of human CCR10 DNA region was determined. […]
inhibition at up to 1 µM: recorded values

Here is how some compounds turned out for inhibition at up to 1 µM.
sampleSmiles	assayedSystem	result
NS(=O)(=O)c1ncc(C(=O)N2CCC(c3ccccc3)CC2)c(Nc2cccc(Cl)c2)c1Cl	human CCR10 (Homo sapiens, UniProt P46092)	≥ 50%
NS(=O)(=O)c1cc(Nc2ccc(Cl)c(F)c2Cl)c(C(=O)N2CCC(c3ccc(F)cc3)CC2)cn1	human CCR10 (Homo sapiens, UniProt P46092)	≥ 50%
CNC(=O)[C@@H]1C[C@@H](O)CN1S(=O)(=O)c1cc(Nc2ccc(F)cc2C)c(C(=O)N2CCC(c3ccc(F)cc3)CC2)cn1	human CCR10 (Homo sapiens, UniProt P46092)	≥ 50%
Cc1ccccc1Nc1c(C(=O)N2CCC(c3ccc(F)cc3)CC2)cnc(S(=O)(=O)c2ccccc2)c1Cl	human CCR10 (Homo sapiens, UniProt P46092)	≥ 50%

Consider the additional compound presented here.
Give the reported inhibition at up to 1 µM for this compound. COC1(c2ccc(F)cc2)CCN(C(=O)c2cnc(S(N)(=O)=O)c(Cl)c2Nc2cccc(Cl)c2)CC1
≥ 50%

###

biological target: human CCR10 (Homo sapiens); construct: expressed in transfected cells; host or cells: KJMGER8 cells (Namalwa cell-derived line), beta-estradiol-induced; hCCR10G16 cells; assay: CCR10 antagonistic effect: calcium assay of human CCR10 (CTACK-induced increase of intracellular calcium in hCCR10G16 cells); assay type: cell-based; conditions: at a concentration of not more than 1000 nmol/L; human CCR10-expressing hCCR10G16 cells, 300 nmol/L CTACK added; read-out: inhibition of increase in the calcium ion concentration
inhibition at up to 1 µM: recorded values

molecule	result
COc1ccc(Nc2c(C(=O)N3CCC(c4ccc(F)cc4)CC3)cnc(S(N)(=O)=O)c2Cl)cc1 [Compound 29]	≥ 50%
Cc1cc(Nc2cc(S(N)(=O)=O)ncc2C(=O)N2CCC(c3ccc(F)cc3)CC2)ccc1F [Compound 83]	≥ 50%
Cc1cc(F)ccc1Nc1cc(S(=O)(=O)NC2CCNC2=O)ncc1C(=O)N1CCC(c2ccc(F)cc2)CC1 (stereo not shown) [Compound 142]	≥ 50%

Give the reported inhibition at up to 1 µM for this molecule. Cc1c(S(=O)(=O)Nc2ccon2)ncc(C(=O)N2CCC(c3ccc(F)cc3)CC2)c1Nc1ccc(Cl)cc1 [Compound 259]
≥ 50%
